biological target: Plasmodium falciparum protein kinase 6 (PK6, PF3D7_1337100); assay: PfPK6 kinase inhibitors, biochemical, TCAMS library (AID 1159586); details: recombinant PfPK6, Kinase-Glo ATP depletion luminescence
Results with a measured potency or affinity are listed apart. Calls of active or inactive are those of the source. How the calls were made is not given here.
metricName: outcome

Recorded outcome, per entry:
• O=C(NC1CCN(CCN2CCC(c3c[nH]c4ccccc34)CC2)CC1)c1ccc(-c2ccc(C(F)(F)F)cc2)cc1 = inactive
• CCN(CC)C(=NCCCCCCN=C(NC(N)=NCc1ccc(Cl)cc1Cl)N(CC)CC)NC(N)=NCc1ccc(Cl)cc1Cl = inactive
• COc1cccc2cc(C(=O)N[C@@H](CC(C)C)C(=O)N[C@H](/C=N/NC(=O)Cc3cccnc3)CCc3ccccc3)oc12 = inactive
• c1ccc2c3c(ccc2c1)Sc1c(ccc2ccccc12)N3 = inactive
• O=S(=O)(Nc1cc2c(cc1O)CCN(C1CCC1)CC2)c1ccc(-c2ccc(F)cc2)cc1 = inactive
• CCOC(=O)CNC(=O)c1cc(=O)c2ccccc2o1 = inactive
• COc1cc(CCON2C(N)=NC(N)=NC2(C)C)cc(OC)c1OC = inactive
• O=C(C1CCCCC1)N1CCOC(CCN2CCC(c3ccccc3)CC2)(c2ccc(Cl)c(Cl)c2)C1 (stereo not given) = inactive

Name the recorded outcome of the compound listed here: `CC(C)(C)c1cc(NC(=O)c2ccc(Cl)c([N+](=O)[O-])c2)cc(C(C)(C)C)c1` inactive

Name the recorded outcome of the compound listed here: `COc1ccc2nccc([C@@H](O)CN3CCC(NC(=O)c4cc5ccccc5[nH]4)CC3)c2c1` inactive

Name the recorded outcome of the compound listed here: `C=Cc1ccc(-c2c(C)[nH]c(C)c(Br)c2=O)cc1` inactive

Provenance of the data: PubChem BioAssay
